- System: Propionibacterium propionicum
- EXPERIMENT DESCRIPTION: Antibacterial activity against Propionibacterium propionicus by CLSI M11-A6 agar dilution method
- Format: functional
- STATED CONDITIONS: Arachnia propionica
Sorting guide: entries reporting MIC90 beneath 8 µg/mL go in the rule met pile, the rest go in the rule not met pile.

Problem: Bench note: check whether "CCC[C@@H]1C[C@@H](C(=O)N[C@@H]([C@H]2O[C@H](SC)[C@H](O)[C@@H](O)[C@H]2O)[C@H](C)Cl)N(C)C1" shows MIC90 below 8 µg/mL
Result: rule met

Here is the next item to consider.
Problem: Bench note: check whether "CN[C@H](CC(C)C)C(=O)N[C@H]1C(=O)N[C@@H](CC(N)=O)C(=O)N[C@H]2C(=O)N[C@H]3C(=O)N[C@H](C(=O)N[C@H](C(=O)O)c4cc(O)cc(O)c4-c4cc3ccc4O)[C@H](O)c3ccc(c(Cl)c3)Oc3cc2cc(c3O[C@@H]2O[C@H](CO)[C@@H](O)[C@H](O)[C@H]2O[C@H]2C[C@](C)(N)[C@H](O)[C@H](C)O2)Oc2ccc(cc2Cl)[C@H]1O" shows MIC90 below 8 µg/mL
Result: rule met
